System: c-Src;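 further: 11-residue human phosphosite peptides and single-mutation variants displayed on the E. coli surface, counted by deep sequencing, each peptide's frequency after selection divided by its frequency in the unselected input library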;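 further: frequency after pTyr selection over input frequency; kinase dosed for 20-30% of maximal phosphorylation in three min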
Measurement Protocol: phosphorylation enrichment, bacterial display (enrichment ratio); higher = better substrate or ligand; peptides without Tyr show the background
Would you please tag the item satisfied when its phosphorylation enrichment is 0.5 or above, and not satisfied when it is below?

Below are worked cases with known answers.
HLQQSNLPRGT [TEX45_Y396_Y396N]	not satisfied
PFAEPYADFGG [APBA1_Y187_S184A_YF]	satisfied
LDPMVYMNDTS [PTK2B_Y834_K838T]	satisfied

Kindly determine if phosphorylation enrichment recorded for NDDDVYRSLEE [VAV2_Y142] is above or exactly 0.5.
satisfied

Given the entry QGIIIYRAAYF [SLC25A4_Y187] , answer whether its phosphorylation enrichment meets or surpasses 0.5.
satisfied

Given the entry ECKHLYSRKEG [PTPN11_Y263_L261H] , answer whether its phosphorylation enrichment meets or surpasses 0.5.
not satisfied

Kindly determine if phosphorylation enrichment recorded for GHNNVYISEHV [GRIN2A_Y1423_D1421N] is above or exactly 0.5.
not satisfied

# check: phosphorylation enrichment of DLGIQYKALKP [CTNNA1_Y177] is greater than or equal to 0.5
not satisfied

State whether the measured phosphorylation enrichment reaches 0.5, counting equality as reaching it, for TGYRPYVCPFD [YY1_Y383_D380Y]
not satisfied

Exam item: decide whether the reported phosphorylation enrichment for TPSGNYVACGG [GNB1_Y111_A106T] is at least 0.5.
satisfied

Decide: phosphorylation enrichment of QDRTFYESVRT [SPEN_Y633_YF] >= 0.5?
satisfied

Assess whether reported phosphorylation enrichment for FLQEIYNSNNQ [FGG_Y140_YF] sits at 0.5 or higher.
satisfied

Is phosphorylation enrichment for DTQNSYWCATS [TSC1_Y304_G305W] at or above 0.5?
satisfied
